- Tested on: Carbonic anhydrase 2 (Homo sapiens)
- Experiment description: Inhibition of recombinant human cytosolic carbonic anhydrase 2 expressed in Escherichia coli pretreated for 15 mins prior to testing by stopped-flow assay
Field: pKi. Provide a value for each of the compounds that follow.
The read-out pKi is expressed as -log10 of concentration in moles per litre.

q: // fetch pKi; item: "NS(=O)(=O)c1ccc(NC(=S)N/N=C2\C(=O)Nc3c(Br)cc(Br)cc32)cc1" ; system: Carbonic anhydrase 2 (Homo sapiens)
a: 6.16

q: System Carbonic anhydrase 2 (Homo sapiens). Read-out pKi. Item "NS(=O)(=O)c1ccc(NC(=S)N/N=C2\C(=O)Nc3ccc(OC(F)(F)F)cc32)cc1" . Report value.
a: 6.38

q: Answer with pKi of "NS(=O)(=O)c1ccc(NC(=S)N/N=C2\C(=O)Nc3c(Cl)cc(Cl)cc32)cc1" measured for Carbonic anhydrase 2 (Homo sapiens).
a: 6.11

q: Recall the reported pKi of "NS(=O)(=O)c1ccc(NC(=S)N/N=C2\C(=O)Nc3ccc(S(=O)(=O)O)cc32)cc1" on Carbonic anhydrase 2 (Homo sapiens) and write it down.
a: 6.05

q: Write down measured pKi (Carbonic anhydrase 2 (Homo sapiens)) for this compound. "NS(=O)(=O)c1ccc(NC(=S)N/N=C2\C(=O)Nc3ccc(F)cc32)cc1"
a: 6.26

q: Look up and report pKi, with Carbonic anhydrase 2 (Homo sapiens) as system, for "NS(=O)(=O)c1ccc(NC(=S)N/N=C2\C(=O)Nc3ccccc32)cc1"
a: 6.03

q: Please report pKi with Carbonic anhydrase 2 (Homo sapiens) for item "NS(=O)(=O)c1ccc(NC(=S)N/N=C2\C(=O)Nc3ccc(Br)cc32)cc1" .
a: 6.07

q: Report value only: pKi, Carbonic anhydrase 2 (Homo sapiens), "NS(=O)(=O)c1ccc(NC(=S)N/N=C2\C(=O)Nc3ccc([N+](=O)[O-])cc32)cc1"
a: 7.49

q: Quote Carbonic anhydrase 2 (Homo sapiens) pKi for entry "NS(=O)(=O)c1ccc(NC(=S)N/N=C2\C(=O)Nc3c(F)cccc32)cc1" .
a: 7.57

q: Give pKi only, for "Cc1ccc2c(c1)/C(=N/NC(=S)Nc1ccc(S(N)(=O)=O)cc1)C(=O)N2" , using Carbonic anhydrase 2 (Homo sapiens) data.
a: 6.13

q: Name the recorded pKi of "NS(=O)(=O)c1ccc(NC(=S)N/N=C2\C(=O)Nc3ccc(I)cc32)cc1" , assay system Carbonic anhydrase 2 (Homo sapiens).
a: 6.40

q: Please report the measured pKi for "NS(=O)(=O)c1ccc(NC(=S)N/N=C2\C(=O)Nc3c(Cl)cccc32)cc1" tested on Carbonic anhydrase 2 (Homo sapiens).
a: 6.37

q: Report value: pKi, system: Carbonic anhydrase 2 (Homo sapiens), compound: "NS(=O)(=O)c1ccc(NC(=S)N/N=C2\C(=O)Nc3ccc(Cl)cc32)cc1"
a: 6.21

Origin of values: ChEMBL document CHEMBL4033724
